// data source = paper PMC4336329

- TARGET_ENTITY: human ether-à-go-go-related gene (hERG) potassium channel (human, UniProt Q12809);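 further: peak tail current of the secondary pulse compared with the same well before compound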
- Sequence (Q12809 whole entry, looked up): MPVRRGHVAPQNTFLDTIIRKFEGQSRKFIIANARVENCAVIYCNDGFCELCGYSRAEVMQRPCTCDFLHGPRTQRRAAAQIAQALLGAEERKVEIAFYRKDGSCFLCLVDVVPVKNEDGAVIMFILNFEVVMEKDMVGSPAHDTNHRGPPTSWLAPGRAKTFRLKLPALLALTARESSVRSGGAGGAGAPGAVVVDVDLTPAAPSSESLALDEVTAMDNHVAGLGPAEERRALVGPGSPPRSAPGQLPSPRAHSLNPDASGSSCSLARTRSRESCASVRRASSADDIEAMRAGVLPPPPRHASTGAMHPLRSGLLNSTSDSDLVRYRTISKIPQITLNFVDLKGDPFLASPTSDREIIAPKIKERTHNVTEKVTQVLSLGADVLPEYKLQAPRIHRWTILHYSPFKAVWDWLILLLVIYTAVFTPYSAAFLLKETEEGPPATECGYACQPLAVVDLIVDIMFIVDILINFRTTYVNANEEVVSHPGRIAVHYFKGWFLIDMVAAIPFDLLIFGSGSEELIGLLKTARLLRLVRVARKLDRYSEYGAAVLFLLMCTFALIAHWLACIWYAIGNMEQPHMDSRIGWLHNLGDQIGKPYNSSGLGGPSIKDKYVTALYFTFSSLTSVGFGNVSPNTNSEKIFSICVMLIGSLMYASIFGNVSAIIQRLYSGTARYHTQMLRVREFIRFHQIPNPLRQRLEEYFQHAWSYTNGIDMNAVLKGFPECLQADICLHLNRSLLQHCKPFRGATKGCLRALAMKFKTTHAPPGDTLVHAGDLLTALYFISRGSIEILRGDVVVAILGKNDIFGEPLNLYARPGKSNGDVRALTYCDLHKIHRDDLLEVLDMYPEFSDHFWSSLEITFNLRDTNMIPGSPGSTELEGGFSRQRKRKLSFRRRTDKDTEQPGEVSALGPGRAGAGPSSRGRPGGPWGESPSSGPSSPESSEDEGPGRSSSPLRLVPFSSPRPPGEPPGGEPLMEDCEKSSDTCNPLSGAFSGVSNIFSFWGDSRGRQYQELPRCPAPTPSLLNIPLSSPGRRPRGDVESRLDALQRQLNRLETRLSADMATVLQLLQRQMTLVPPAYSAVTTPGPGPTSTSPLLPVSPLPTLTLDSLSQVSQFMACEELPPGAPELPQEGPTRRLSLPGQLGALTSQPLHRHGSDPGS
- PROTOCOL_TEXT: primary screen, population patch clamp on CHO cells stably expressing hERG; higher = less effect of the substance
Screen size: about 310,000 compounds; about 14,000 (4.5%) showed an effect of 50% or more. The effect is printed as a negative number. The sample as a whole holds a higher share of strong results than the screen did.
MEASURE: hERG current change (%, negative = inhibition) at 10uM
Quote the value and follow it with the unit of measurement.

Guide cases for hERG current change (%, negative = inhibition) at 10uM, answers given:
CCOC(=O)c1cc2c(=O)n3ccccc3nc2n(CCCOC)c1=NC(=O)c1ccncc1 ... -87.3%
NC(=O)c1ccsc1NC(=O)CS(=O)(=O)c1ccc(Cl)cc1 ... -75.7%
CCC1=C(c2ccc(C)cc2)S(=O)(=O)N=C1N1CCC(C(=O)NCCCN2CCCCC2)CC1 ... 20.5%
COc1ccc(C(CC(=O)Nc2ccc(F)cc2)c2ccccc2)cc1 (stereo not shown) ... 9.13%
CCSc1nc(O)cc(=O)n1-c1ccc(OC)cc1 ... 3.73%
CCOC(=O)C1(CCOc2ccccc2)CCN(Cc2cccc(OC)c2O)CC1 ... -70.5%

Ask: Please give the measured hERG current change (%, negative = inhibition) at 10uM for this compound: COC(=O)C1=C(C)Nc2ncnn2C1c1cccnc1 (stereo not shown)
Reply: 2.93%

Ask: And then COc1ccc(CNC(=O)[C@H](Cc2ccccc2)NC(=O)C2CCN(C(=O)[C@H](C)N)CC2)cc1 , what is it?
Reply: -2.78%

Ask: And then O=C(CS(=O)(=O)c1ccc(F)cc1)Nc1nccs1 , what is it?
Reply: 9.06%

Ask: And then CCOC(=O)c1cnn2c(C)cc(-c3ccccc3)nc12 , what is it?
Reply: -10.4%

====

- TARGET_ENTITY: human ether-à-go-go-related gene (hERG) potassium channel (human);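 further: peak tail current of the secondary pulse compared with the same well before compound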
- PROTOCOL_TEXT: primary screen, population patch clamp on CHO cells stably expressing hERG; higher = less effect of the substance
The campaign covered roughly 310,000 compounds. About 14,000 (4.5%) showed an effect of 50% or more. The effect is printed as a negative number. The sample as a whole holds a higher share of strong results than the screen did.
MEASURE: hERG current change (%, negative = inhibition) at 10uM (%)
All answers are understood in %, so give the number only.

Cc1nc2cc(C(F)(F)F)ccc2n1C1CCN(Cc2nnnn2Cc2cccs2)CC1 ... -36.6
Cc1nc(SCC(=O)O)c(C#N)c2c1CCCC2 ... -10.9
O=C1CCCC(O)=C1N=Nc1cccc(S(=O)(=O)N2CCOCC2)c1 ... -1.24
CC1C(=O)N2CCCc3cc(NC(=O)C4CCCCC4)cc1c32 (stereo not shown) ... 4.17
CCC(C)NC(=O)N[C@@H](Cc1ccccc1)C(=O)O (stereo partly shown) ... -1.98

Ask: Please give the measured hERG current change (%, negative = inhibition) at 10uM for this compound: COc1ccc(-n2nc(C(=O)NCC(=O)NCCCN3CC(C)CC(C)C3)c3ccccc3c2=O)cc1OC (stereo not shown)
Reply: -34

Ask: And then OC1(c2ccccc2F)CCN(Cc2nnnn2CCc2ccccc2)CC1 , what is it?
Reply: 30.9

Ask: And then Cc1ccccc1C(=O)NC1CCN(Cc2nnnn2CCc2ccccc2)CC1 , what is it?
Reply: -8.14

Ask: And then Cc1cc(-c2onc(C)c2C(=O)Oc2ccc(Cl)cc2)no1 , what is it?
Reply: -2.56

Ask: And then O=C(CSc1ncccn1)Nc1ccccc1 , what is it?
Reply: 3.55
